- System: primary BCP-ALL cells derived from four therapy-refractory patients
- Format: cell-based
- ASSAY SETUP: Homo sapiens, read-out: IC50 values, range over four patients
MEASURED PARAMETER: IC50

Task: Requested read-out IC50, target or system primary BCP-ALL cells derived from four therapy-refractory patients, entry C[C@H](NC(=O)[C@H](CC(=O)NCC(C)(C)C)NC(=O)c1ccc(C(=O)NO)cc1)C(=O)NCc1ccccc1 [RTS-V5]
Output: 1.51 to 5.23 µM
